From: paper PMC12677607

- System: Acinetobacter baumannii ATCC 17978
- Procedure Summary: microbe, parasite or virus in culture
- Assay type: cell-based
- Experimental Setup: ATCC 17978, 16 h
Bridge positions count the residues as written; N and C are the ends. Square brackets hold non-standard residues; d marks the D form. Peptide text beside a SMILES is read from it. * marks the point of attachment. Myristoyl = CCCCCCCCCCCCCC(=O)*; dOrn = NCCC[C@@H](N)C(=O)O; Orn = NCCC[C@H](N)C(=O)O; Dab = NCC[C@H](N)C(=O)O; Dap = NC[C@H](N)C(=O)O
# MIC Acinetobacter baumannii ATCC 17978 per entry
Use µg/mL as the unit, but write only the number.

Query: Look up MIC Acinetobacter baumannii ATCC 17978: CCCCCCCCCCCCCC(=O)N[C@@H](CCCN)C(=O)N[C@H](Cc1ccc(O)cc1)C(=O)N[C@@H](C(=O)N[C@H]1C(=O)N[C@H](CCCN)C(=O)N[C@@H](CCCN)C(=O)N[C@H](C(C)C)C(=O)N[C@@H]([C@@H](C)CC)C(=O)N[C@@H](CC(C)C)C(=O)N[C@H](CCCN)C(=O)N[C@@H]([C@@H](C)O)C(=O)N[C@@H](C)C(=O)O[C@H]1C)C(C)C [synAQU6-C4] (Myristoyl-[Orn][dY][dV][dT][dOrn][Orn][dV]IL[dOrn]TA; ester 4-C)
Response: 32

Query: Look up MIC Acinetobacter baumannii ATCC 17978: CCCCCCCCCCCCCC(=O)N[C@@H](CN)C(=O)N[C@H](C(=O)N[C@@H](CC(C)C)C(=O)N[C@H]1COC(=O)[C@H](Cc2ccccc2)NC(=O)[C@H](CC(N)=O)NC(=O)[C@H](CCCN)NC(=O)[C@H]([C@@H](C)CC)NC(=O)[C@H](Cc2ccccc2)NC(=O)[C@H](CN)NC(=O)[C@H](CCN)NC1=O)[C@@H](C)O [synAQU5-C4] (Myristoyl-[Dap]TLS[Dab][Dap]FI[Orn]NF; ester 4-C)
Response: 32

---

# MIC Acinetobacter baumannii 1104008 per entry
- Tested on: Acinetobacter baumannii 1104008
- Procedure Summary: microbe, parasite or virus in culture
- Type: cell-based
- Experimental Setup: Table S11; LB broth, 37 °C, 16 h, n = 2
Bridge positions count the residues as written; N and C are the ends. Square brackets hold non-standard residues; d marks the D form. Peptide text beside a SMILES is read from it. * marks the point of attachment. Myristoyl = CCCCCCCCCCCCCC(=O)*; Orn = NCCC[C@H](N)C(=O)O; Dab = NCC[C@H](N)C(=O)O; Dap = NC[C@H](N)C(=O)O
Use µg/mL as the unit, but write only the number.

CCCCCCCCCCCCCC(=O)N[C@@H](CN)C(=O)N[C@H](C(=O)N[C@@H](CC(C)C)C(=O)N[C@H]1COC(=O)[C@H](Cc2ccccc2)NC(=O)[C@H](CC(N)=O)NC(=O)[C@H](CCCN)NC(=O)[C@H]([C@@H](C)CC)NC(=O)[C@H](Cc2ccccc2)NC(=O)[C@H](CN)NC(=O)[C@H](CCN)NC1=O)[C@@H](C)O [synAQU5-C4] (Myristoyl-[Dap]TLS[Dab][Dap]FI[Orn]NF; ester 4-C); 16

Now for another entry.
Query: Look up MIC Acinetobacter baumannii 1104008: CCCCCCCCCCCCCC(=O)N[C@@H](Cc1ccccc1)C(=O)N[C@@H](CCCN)C(=O)N[C@H]1CCCNC(=O)CNC(=O)[C@H](CCN)NC(=O)[C@@H](Cc2ccc(O)cc2)NC(=O)[C@H](CC(C)C)NC(=O)[C@H]([C@@H](C)CC)NC(=O)[C@@H](C(C)C)NC1=O [synAQU2-C3] (Myristoyl-F[Orn][Orn][dV]IL[dY][Dab]G; lactam 3-C)
Response: 8

---

- System: Klebsiella pneumoniae CRKP HS11286
- Procedure Summary: microbe, parasite or virus in culture
- Format: cell-based
- Experimental Setup: CRKP HS11286, 16 h
Numbered stars: 1 amine (or outer) side, 2 acyl side, 3 side chain; on linkers, the order of the positions; unused ones are H or OH. Bridge positions count the residues as written; N and C are the ends. Square brackets hold non-standard residues; d marks the D form. Peptide text beside a SMILES is read from it. * marks the point of attachment. X3 = CCCCC[C@H](CC(=O)[*:1])O[*:2]; Myristoyl = CCCCCCCCCCCCCC(=O)*; X2 = NC[C@H](Cc1ccc(O)cc1)N*; dOrn = NCCC[C@@H](N)C(=O)O; X1 = CC(C)[C@H](O)CC(=O)*; Orn = NCCC[C@H](N)C(=O)O; Dab = NCC[C@H](N)C(=O)O; Dap = NC[C@H](N)C(=O)O; βAla = NCCC(=O)O
# MIC Klebsiella pneumoniae CRKP HS11286 per entry

Previously resolved entries follow.
CCCCC[C@@H]1CC(=O)N[C@@H](CN)C(=O)N[C@@H](Cc2ccccc2)C(=O)N[C@@H](CCN)C(=O)N[C@@H]([C@@H](C)O)C(=O)N[C@H](Cc2ccccc2)C(=O)N[C@@H](CN)C(=O)N[C@H](CC(C)C)C(=O)N[C@@H](C(C)C)C(=O)N[C@@H](CC(=O)O)C(=O)O1 [synAQU3-cFA] ([Dap]F[Dab]T[dF][Dap][dL]VD; linker N-C via X3); > 64 µg/mL
CC[C@H](C)[C@H](NC(=O)[C@@H](NC(=O)[C@@H](C)NC(=O)[C@H](C)NC(=O)[C@@H](NC(=O)C[C@@H](O)C(C)C)C(C)C)[C@@H](C)CC)C(=O)NCCC(=O)N[C@@H](CC(C)C)C(=O)N[C@H](C)C(=O)N[C@H](C(=O)N[C@H](CN)Cc1ccc(O)cc1)[C@@H](C)CC [synAQU4-L] (X1-VA[dA]II[βAla]L[dA]I-X2); > 64 µg/mL

Now for another entry.
Query: Look up MIC Klebsiella pneumoniae CRKP HS11286: CCCCCCCCCCCCCC(=O)N[C@@H](CCCN)C(=O)N[C@H](Cc1ccc(O)cc1)C(=O)N[C@@H](C(=O)N[C@@H](C(=O)N[C@H](CCCN)C(=O)N[C@@H](CCCN)C(=O)N[C@@H](C(=O)N[C@H](C(=O)N[C@@H](CC(C)C)C(=O)N[C@H](CCCN)C(=O)N[C@H](C(=O)N[C@@H](C)C(=O)O)[C@@H](C)O)[C@@H](C)CC)C(C)C)[C@H](C)O)C(C)C [synAQU6-L] (Myristoyl-[Orn][dY][dV][dT][dOrn][Orn][dV]IL[dOrn]TA-OH)
Response: > 64 µg/mL
